experiment: reversal of MRP1-mediated doxorubicin resistance, pilot screen, H69AR cells, doxorubicin co-treatment (AID 601); settings: H69AR cells + 2 uM doxorubicin, CellTiter-Glo, 72 h; measured here: viability with 2 uM doxorubicin; at 10 µM; stronger effect = lower value
viability values, listed per item
Attribute measured: viability (%)

compound="CC1Cc2ccccc2N1S(=O)(=O)c1ccc2c(c1)n(C)c(=O)c(=O)n2C (stereo not drawn)" attribute_measured=viability unit_abbrev=% recorded_measurement=86.4
compound=CC(=O)n1nc(-c2ccco2)nc1SCc1ccccc1 attribute_measured=viability unit_abbrev=% recorded_measurement=83.8
compound=O=C(O)c1ccc(NC(=O)c2cccs2)cc1 attribute_measured=viability unit_abbrev=% recorded_measurement=79.7
compound=CC[C@]1(O)C[C@@H]2CN(CCc3c([nH]c4ccccc34)[C@@](C(=O)OC)(c3cc4c(cc3OC)N(C)[C@H]3[C@@](O)(C(=O)OC)[C@H](OC(C)=O)[C@]5(CC)C=CCN6CC[C@]43[C@@H]65)C2)C1 attribute_measured=viability unit_abbrev=% recorded_measurement=55.7
compound=Nc1nonc1-c1noc(-c2ccccc2Br)n1 attribute_measured=viability unit_abbrev=% recorded_measurement=92
compound=N#C/C(=C\c1ccc(O)c(O)c1)C(=O)NCCCc1ccccc1 attribute_measured=viability unit_abbrev=% recorded_measurement=78
compound=Cc1cccc(-n2ncc3c(NCc4cccs4)ncnc32)c1 attribute_measured=viability unit_abbrev=% recorded_measurement=88.9
compound=CCOC(=O)c1cccc(NC(=O)CSc2nc3cccnc3n2C)c1 attribute_measured=viability unit_abbrev=% recorded_measurement=94.7
compound=COc1cccc(-c2nnc3sc(C4CCCCC4)nn23)c1 attribute_measured=viability unit_abbrev=% recorded_measurement=33.5
compound="N#CC1=C(N)N2C(=C(C#N)C13CCCCC3)SC1CCCCC12O (stereo not drawn)" attribute_measured=viability unit_abbrev=% recorded_measurement=69.4
compound=COc1ccc(CCNc2oc(COc3ccc(F)cc3)nc2C#N)cc1 attribute_measured=viability unit_abbrev=% recorded_measurement=91.1
compound=O=C(Nc1cnn(C23CC4CC(CC(C4)C2)C3)c1)c1cnn2c(C(F)(F)F)cc(-c3ccco3)nc12 attribute_measured=viability unit_abbrev=% recorded_measurement=51.8
compound=Cc1nnc(SCc2nnc(-c3ccccc3Br)o2)n1-c1ccccc1 attribute_measured=viability unit_abbrev=% recorded_measurement=93.6
compound=O=C(NC1CCCCCC1)c1cc(S(=O)(=O)N2CCC3(CC2)OCCO3)ccc1F attribute_measured=viability unit_abbrev=% recorded_measurement=92.4
compound=CCOC(=O)N1CCN(C(=O)c2ccc3c(=O)n(Cc4ccc(OC)cc4)c(=S)[nH]c3c2)CC1 attribute_measured=viability unit_abbrev=% recorded_measurement=25.1
compound=COCCNC(=O)c1snc2ccc(Cl)cc12 attribute_measured=viability unit_abbrev=% recorded_measurement=91.5
compound="COc1ccc(-c2nnc(SCC(=O)Nc3sc4c(c3C#N)CCC4)n2CC2CCCO2)cc1 (stereo not drawn)" attribute_measured=viability unit_abbrev=% recorded_measurement=74.4
compound=CN(C)CCCN1c2ccccc2Sc2ccc(C(F)(F)F)cc21 attribute_measured=viability unit_abbrev=% recorded_measurement=51
compound="CCOc1ccc(C2/C(=C(/O)c3ccccc3)C(=O)C(=O)N2CCCN(C)C)cc1OC (stereo not drawn)" attribute_measured=viability unit_abbrev=% recorded_measurement=92.9
compound="CC1=C(C(=O)NCc2ccccn2)C2(CCC(C)CC2)OC1=O (stereo not drawn)" attribute_measured=viability unit_abbrev=% recorded_measurement=89.7
compound=COC(=O)c1[nH]c2ccccc2c1NS(=O)(=O)c1ccc(OC)cc1OC attribute_measured=viability unit_abbrev=% recorded_measurement=99.4
compound=NC(=O)c1cc(-c2ccccc2)nc(N2CCOCC2)n1 attribute_measured=viability unit_abbrev=% recorded_measurement=72.3
compound="CCOC(=O)c1ccc(N2C(=O)CC(Sc3nnc(C)s3)C2=O)cc1 (stereo not drawn)" attribute_measured=viability unit_abbrev=% recorded_measurement=46.2
compound=CCSc1nc(-c2ccc(OC)cc2)ccc1C#N attribute_measured=viability unit_abbrev=% recorded_measurement=86.3
compound=CC(=O)[C@H]1CC[C@H]2[C@@H]3CCC4=CC(=O)CC[C@]4(C)[C@H]3CC[C@]12C attribute_measured=viability unit_abbrev=% recorded_measurement=50.5
compound=O=S1(=O)Nc2c(ccc3cccnc23)-c2ccccc21 attribute_measured=viability unit_abbrev=% recorded_measurement=56
compound=CC1CCN(CCCNC(=O)c2coc3nc4ccccc4nc23)CC1 attribute_measured=viability unit_abbrev=% recorded_measurement=99.3
compound=Nc1cc(=O)[nH]c(SCC(=O)Nc2ccc(Br)cc2)n1 attribute_measured=viability unit_abbrev=% recorded_measurement=86

Sourced from PubChem BioAssay
